Tested target: Sphingosine kinase 1/2 (Homo sapiens, UniProt Q9NRA0+Q9NYA1)
Protocol: Prodrug conversion in human blood assessed as SPHK1/SPHK2-mediated compound phosphorylation by measuring Km by LC-MS/MS analysis
Format: ADME, tissue-based
Recorded endpoint: Km (µM)
Number in µM, nothing else.

Endpoint output: Km of CCCc1nc(-c2ccc(-c3ccc(CC[C@@H](N)CO)cc3)cc2)co1.Cl . Value? 54.12

Endpoint output: Km of CCCCCCCCc1ccc(CCC(N)(CO)CO)cc1.Cl [FINGOLIMOD HYDROCHLORIDE] . Value? 23.7

Endpoint output: Km of CCCc1nc(-c2ccc(-c3ccc(CCC(N)(CO)CO)cc3)cc2)co1.Cl . Value? 42.62

Endpoint output: Km of CCCc1nc(-c2ccc(-c3ccc(CC[C@@](C)(N)CO)cc3)cc2)co1.Cl . Value? 86.55

====

Tested target: Sphingosine kinase 1/2 (Homo sapiens, UniProt Q9NRA0+Q9NYA1)
Protocol: Prodrug conversion in human blood assessed as SPHK1/SPHK2-mediated compound phosphorylation by measuring intrinsic clearance by LC-MS/MS analysis
Assay type: ADME, tissue-based
For each entry below, report its CL value.
Number in µL/min, nothing else.

Endpoint output: CL of CCCc1nc(-c2ccc(-c3ccc(CC[C@@](C)(N)CO)cc3)cc2)co1.Cl . Value? 0.025

Endpoint output: CL of CCCCCCCCc1ccc(CCC(N)(CO)CO)cc1.Cl [FINGOLIMOD HYDROCHLORIDE] . Value? 0.013

Endpoint output: CL of CCCc1nc(-c2ccc(-c3ccc(CCC(N)(CO)CO)cc3)cc2)co1.Cl . Value? 0.012

Endpoint output: CL of CCCc1nc(-c2ccc(-c3ccc(CC[C@@H](N)CO)cc3)cc2)co1.Cl . Value? 0.049

====

Tested target: Sphingosine kinase 1/2 (Rattus norvegicus, UniProt Q91V26+A6JB73)
Protocol: Prodrug conversion in rat blood assessed as SPHK1/SPHK2-mediated compound phosphorylation by measuring Km by LC-MS/MS analysis
Format: ADME, tissue-based
For each entry below, report its Km value.
Number in µM, nothing else.

Recorded Km for CCCc1nc(-c2ccc(-c3ccc(CC[C@@H](N)CO)cc3)cc2)co1.Cl with Sphingosine kinase 1/2 (Rattus norvegicus, UniProt Q91V26+A6JB73), please? 48.37

Recorded Km for CCCc1nc(-c2ccc(-c3ccc(CC[C@@](C)(N)CO)cc3)cc2)co1.Cl with Sphingosine kinase 1/2 (Rattus norvegicus, UniProt Q91V26+A6JB73), please? 23.6

Recorded Km for CCCCCCCCc1ccc(CCC(N)(CO)CO)cc1.Cl [FINGOLIMOD HYDROCHLORIDE] with Sphingosine kinase 1/2 (Rattus norvegicus, UniProt Q91V26+A6JB73), please? 64.6

Recorded Km for CCCc1nc(-c2ccc(-c3ccc(CCC(N)(CO)CO)cc3)cc2)co1.Cl with Sphingosine kinase 1/2 (Rattus norvegicus, UniProt Q91V26+A6JB73), please? 85.25

====

Tested target: Sphingosine kinase 1/2 (Homo sapiens, UniProt Q9NRA0+Q9NYA1)
Protocol: Prodrug conversion in human blood assessed as SPHK1/SPHK2-mediated compound phosphorylation by measuring Vmax by LC-MS/MS analysis
Format: ADME, tissue-based
For each entry below, report its Vmax value.
Number in pmol/min, nothing else.

Endpoint output: Vmax of CCCc1nc(-c2ccc(-c3ccc(CC[C@@](C)(N)CO)cc3)cc2)co1.Cl . Value? 2.15

Endpoint output: Vmax of CCCc1nc(-c2ccc(-c3ccc(CCC(N)(CO)CO)cc3)cc2)co1.Cl . Value? 0.53

Endpoint output: Vmax of CCCc1nc(-c2ccc(-c3ccc(CC[C@@H](N)CO)cc3)cc2)co1.Cl . Value? 2.63

Endpoint output: Vmax of CCCCCCCCc1ccc(CCC(N)(CO)CO)cc1.Cl [FINGOLIMOD HYDROCHLORIDE] . Value? 0.31
